Data provenance is ChEMBL document CHEMBL3988442.

- Species on record: Homo sapiens
- Assay Protocol: To identify inhibition of the IFN signalling (Jak-Stat) pathway via expression of an eGFP reporter gene under the control of an IFN-stimulated response element (ISRE) containing MxA promoter.
- Type: functional
- Design: scale not given: direction of the effect not stated beside the values
- Setup Conditions: 30 µM
Assay Endpoint: Percent Effect (%)
A number alone suffices; assume %.

Would you please look over these solved cases?
O=C(Nc1cccnc1)[C@H]1CN(Cc2nccs2)C[C@H]2OCC[C@@H]12    15
Cc1nc(CN2CCOCC3(CCN(c4ncccn4)C3)C2)cs1 (stereo unspecified)    -5.73
CCc1nc(CN2CCN(C(=O)Cc3c(C)noc3C)CC2)cs1    10.4
O=C1[C@H]2CN(Cc3cccs3)C[C@H]2CN1c1cncnc1    7.38
NC(=O)CN1CCCN(C(=O)Cc2ccc3ccccc3c2)CC1    24.3

[in] Record request: Percent Effect value, item O=C(Cc1ccccc1)N1CCN(Cc2noc(C3CC3)n2)CC1
[out] -5.12

----------
// Percent Effect lookup, one value per entry
- Measured Target: Arginase-2, mitochondrial (Homo sapiens)
- Assay Protocol: in vitro enzyme assay to detect the production of urea directly proportional to the activity of Arginase II; also: in the data most compounds retested in dose-response had high values
- Type: functional
- Design: scale not given: direction of the effect not stated beside the values
- Setup Conditions: 33.3 µM
Please state the figure in %; there is no need to write the unit.

c1ccc(CN2C[C@@H]3OCCN(c4ncccn4)[C@@H]3C2)nc1    -1.17
c1cncc(CO[C@H]2CC[C@H]3[C@@H]2OCCN3C2CCOCC2)c1    -0.399
CCN1C[C@H]2[C@@H](C1)N(S(=O)(=O)c1cccnc1)CC[C@H]2OC    -2.56
O=C(Cc1csc(-c2ccco2)n1)N1CCN(CCO)CC1    8.39
COc1ccc(C)cc1CC(=O)N1CCN(CC(C)O)CC1 (stereo unspecified)    -5.53

From here, focus on the item given below.
[in] For the compound shown here, O=C(C1CCC1)N1CCC2(CC1)OCCO2 , give the reported Percent Effect.
[out] 7.1

----------
- Measured Target: Shiga toxin 2 (Escherichia coli O157:H7) (UniProt P09385+P09386)
- Assay Protocol: E. coli 0.157:H7 Shiga Toxin SOP - stx2 screening assay
- Format: functional
- Design: scale not given: direction of the effect not stated beside the values
- Setup Conditions: 30 µM
Catalogue of Percent Effect readings, one per entry.
Supply the numeric figure in %, leaving out any unit text.

Solved cases (8 shown):
Cc1nc(C)n(C2CCCN(C(=O)c3csnn3)C2)n1 (configuration not stated)    18.7
COC(C(=O)N1CCCN(Cc2cscn2)CC1)c1ccccc1 (configuration not stated)    3.66
CCN(c1ccc(C(=O)NCCCN2CCOCC2)cc1)S(=O)(=O)CC    -48.2
CSCC(CCO)NC(=O)Nc1cccc(Br)c1 (configuration not stated)    -15.3
CC1CCN(S(=O)(=O)c2cccn(CC(=O)N3CCOCC3)c2=O)CC1    -33
CC1CN(Cc2noc(C3CC3)n2)CCN1Cc1nccn1C (configuration not stated)    -11.1
Cc1cnc2n1CCN(C)C21CCN(C(=O)CC(C)C)CC1    -6.62
CCOc1ncccc1C(=O)NCCN(CC)C1CC1    9.33

[in] Give recorded Percent Effect with Shiga toxin 2 (Escherichia coli O157:H7) (UniProt P09385+P09386) for the following compound: O=S(=O)(CCN1CCOC(Cn2cccn2)C1)C(F)(F)F (configuration not stated)
[out] 191

[in] Enter reported Percent Effect observed with Shiga toxin 2 (Escherichia coli O157:H7) (UniProt P09385+P09386) for COc1cccc(COCC(=O)N2CCC(CC(N)=O)CC2)c1
[out] 32.3

[in] What measured Percent Effect is associated with COc1cccc(CNC(=O)CC2CSc3ncc(C)c(=O)n32)c1 (configuration not stated) on Shiga toxin 2 (Escherichia coli O157:H7) (UniProt P09385+P09386)?
[out] 6.98

[in] Lookup: Percent Effect / Shiga toxin 2 (Escherichia coli O157:H7) (UniProt P09385+P09386) / O=C(CCc1nc2cccnc2[nH]1)Nc1cccnc1
[out] -77.4
